Each entry below carries its recorded combination Emax.
# Test system: GCIY (Gastric Carcinoma)
# Experiment notes: combination Emax (second highest fraction inhibited in the dose matrix, 72 h); higher = more inhibition; extreme values may be limits of the assay

Check out these entries, answers already filled in.
compound="CC1(C)CCC(CN2CCN(c3ccc(C(=O)NS(=O)(=O)c4ccc(NCC5CCOCC5)c([N+](=O)[O-])c4)c(Oc4cnc5[nH]ccc5c4)c3)CC2)=C(c2ccc(Cl)cc2)C1 [Venetoclax] + CS(=O)(=O)CCNCc1ccc(-c2ccc3ncnc(Nc4ccc(OCc5cccc(F)c5)c(Cl)c4)c3c2)o1 [Lapatinib] (first compound max 1 µM, 7x7, partner max 10 µM)" test_system="GCIY (Gastric Carcinoma)" reported_result=0.276
compound="C=CCn1c(=O)c2cnc(Nc3ccc(N4CCN(C)CC4)cc3)nc2n1-c1cccc(C(C)(C)O)n1 [AZD1775] + C1CN(CCC1(C(=O)N[C@@H](CCO)C2=CC=C(C=C2)Cl)N)C3=NC=NC4=C3C=CN4 [Capivasertib] (first compound max 3 µM, partner max 3 µM)" test_system="GCIY (Gastric Carcinoma)" reported_result=0.668
compound="C[C@@H](c1ccc2nccn2c1)n1nnc2ncc(-c3cnn(C)c3)nc21 [Savolitinib] + CC1(C)CCC(CN2CCN(c3ccc(C(=O)NS(=O)(=O)c4ccc(NCC5CCOCC5)c([N+](=O)[O-])c4)c(Oc4cnc5[nH]ccc5c4)c3)CC2)=C(c2ccc(Cl)cc2)C1 [Venetoclax] (first compound max 1 µM, 7x7, partner max 1 µM)" test_system="GCIY (Gastric Carcinoma)" reported_result=0.213

Inquiry: Fill in the blank: the reported combination Emax of CN(CCO)CC[C@H](CSc1ccccc1)Nc1ccc(S(=O)(=O)NC(=O)c2ccc(N3CCC([C@@H](O)c4ccccc4-c4ccc(Cl)cc4)CC3)cc2)cc1S(=O)(=O)C(F)(F)F [AZD4320] + Nc1ccn([C@@H]2O[C@H](CO)[C@@H](O)C2(F)F)c(=O)n1 [Gemcitabine] (first compound max 1 µM, 7x7, partner max 0.3 µM) is ____.
Reply text: 0.782

Inquiry: Fill blank: measured combination Emax of the compound Cc1cc2ncnn2cc1Nc1ncc2c(n1)n(C1CCOCC1)c(=O)n2C [AZD7648] + COc1cc([C@@H]2c3cc4c(cc3[C@@H](O[C@@H]3O[C@@H]5CO[C@@H](C)O[C@H]5[C@H](O)[C@H]3O)[C@H]3COC(=O)[C@H]23)OCO4)cc(OC)c1O [Etoposide] (first compound max 10 µM, 7x7, partner max 10 µM) is ____.
Reply text: 0.759

Inquiry: What combination Emax value was documented for this compound, O=C(c1cc(Cc2n[nH]c(=O)c3ccccc23)ccc1F)N1CCN(C(=O)C2CC2)CC1 [Olaparib] + COc1nnc2ccc(N3CCC(c4ccc(OCCN5CCN(C)C(=O)[C@H]5C)cc4)CC3)nn12 [AZD5153] (first compound max 10 µM, 7x7, partner max 1 µM) ?
Reply text: 0.487

====

# Test system: KNS-62 (Squamous Cell Lung Carcinoma)
# Experiment notes: Bliss excess, mean over the matrix (fraction); higher = more synergy
Here, each record is paired with measured Bliss excess data.
Output: the number by itself.

A selection of reference data follows.
compound="CC1(C)CCC(CN2CCN(c3ccc(C(=O)NS(=O)(=O)c4ccc(NCC5CCOCC5)c([N+](=O)[O-])c4)c(Oc4cnc5[nH]ccc5c4)c3)CC2)=C(c2ccc(Cl)cc2)C1 [Venetoclax] + C[C@@H](Nc1cc(F)cc(F)c1)c1cc(C(=O)N(C)C)cc2c(=O)cc(N3CCOCC3)oc12 [AZD8186] (first compound max 1 µM, 7x7, partner max 3 µM)" test_system="KNS-62 (Squamous Cell Lung Carcinoma)" reported_result=-0.0545
compound="CCc1c2c(nc3ccc(O)cc13)-c1cc3c(c(=O)n1C2)COC(=O)[C@]3(O)CC [SN-38] + O=C(c1cc(Cc2n[nH]c(=O)c3ccccc23)ccc1F)N1CCN(C(=O)C2CC2)CC1 [Olaparib] (first compound max 0.3 µM, 7x7, partner max 10 µM)" test_system="KNS-62 (Squamous Cell Lung Carcinoma)" reported_result=0.0497

For the next question, use this compound.
Inquiry: Suppose we examine the compound CC1(C)CCC(CN2CCN(c3ccc(C(=O)NS(=O)(=O)c4ccc(NCC5CCOCC5)c([N+](=O)[O-])c4)c(Oc4cnc5[nH]ccc5c4)c3)CC2)=C(c2ccc(Cl)cc2)C1 [Venetoclax] + CN(C)CCCOc1ccc(-c2ccc3ncc4c(c3c2)n(C2CCOCC2)c(=O)n4C)cn1 [AZD0156] (first compound max 1 µM, 7x7, partner max 1 µM) ; what Bliss excess value has been reported?
Reply text: -0.0183

====

# Tested on: NCI-H2009 (Lung Adenocarcinoma)
# Experiment notes: Bliss excess, mean over the matrix (fraction); higher = more synergy
Metric: Bliss excess
Would you mind answering with just the numeric figure?

compound="COc1cccc(OCCCN)c1-c1cc(Nc2cnc(C#N)cn2)n[nH]1 [Prexasertib] + O=C(c1cc(Cc2n[nH]c(=O)c3ccccc23)ccc1F)N1CCN(C(=O)C2CC2)CC1 [Olaparib] (first compound max 1 µM, 7x7, partner max 10 µM)" test_system="NCI-H2009 (Lung Adenocarcinoma)" reported_result=-0.0185

Now for another entry.
Inquiry: Can you share its Bliss excess? I mean this compound: O=C(c1cc(Cc2n[nH]c(=O)c3ccccc23)ccc1F)N1CCN(C(=O)C2CC2)CC1 [Olaparib] + CC1(C)CCC(CN2CCN(c3ccc(C(=O)NS(=O)(=O)c4ccc(NCC5CCOCC5)c([N+](=O)[O-])c4)c(Oc4cnc5[nH]ccc5c4)c3)CC2)=C(c2ccc(Cl)cc2)C1 [Venetoclax] (first compound max 10 µM, 7x7, partner max 1 µM)
Reply text: -0.0323

====

# System: RPMI-8402 (T-Lymphoblastic Leukemia)
# Experiment notes: combination Emax (second highest fraction inhibited in the dose matrix, 72 h); higher = more inhibition; extreme values may be limits of the assay
The reader will find reported combination Emax values listed item by item below.
Form: value (number only, do not type unit).

// worked examples, combination Emax included
compound="COc1nnc2ccc(N3CCC(c4ccc(OCCN5CCN(C)C(=O)[C@H]5C)cc4)CC3)nn12 [AZD5153] + CCN(CCO)CCCOc1ccc2c(Nc3cc(CC(=O)Nc4cccc(F)c4)[nH]n3)ncnc2c1 [AZD2811] (first compound max 1 µM, 7x7, partner max 1 µM)" reported_result=0.999
compound="Cc1c2c(nn1C)CSCc1cc(n(C)n1)CSc1cc(c3ccccc3c1)OCCCc1c(C(=O)O)n(C)c3c-2c(Cl)ccc13 [AZD5991] + C[C@@H](Nc1cc(F)cc(F)c1)c1cc(C(=O)N(C)C)cc2c(=O)cc(N3CCOCC3)oc12 [AZD8186] (first compound max 1 µM, 7x7, partner max 3 µM)" reported_result=0.888

Alright, here's another compound for you.
Inquiry: GET /values?readout=combination Emax&item= NC1(C(=O)N[C@@H](CCO)c2ccc(Cl)cc2)CCN(c2ncnc3[nH]ccc23)CC1 [Capivasertib] + Cn1cnc2c(F)c(Nc3ccc(Br)cc3Cl)c(C(=O)NOCCO)cc21 [Selumetinib] (first compound max 10 µM, 7x7, partner max 10 µM)
Reply text: 0.633

====

Measured combination Emax, listed per entry for reference.
# Test system: BT-474 (Breast Carcinoma)
# Experiment notes: combination Emax (second highest fraction inhibited in the dose matrix, 72 h); higher = more inhibition; extreme values may be limits of the assay
Format: numeric value only, no unit, no commentary.

Some solved cases for reference:
compound="CN(CCO)CC[C@H](CSc1ccccc1)Nc1ccc(S(=O)(=O)NC(=O)c2ccc(N3CCC([C@@H](O)c4ccccc4-c4ccc(Cl)cc4)CC3)cc2)cc1S(=O)(=O)C(F)(F)F [AZD4320] + C1CN(CCC1(C(=O)N[C@@H](CCO)C2=CC=C(C=C2)Cl)N)C3=NC=NC4=C3C=CN4 [Capivasertib] (first compound max 1 µM, 7x7, partner max 3 µM)" reported_result=0.254
compound="NC1(C(=O)N[C@@H](CCO)c2ccc(Cl)cc2)CCN(c2ncnc3[nH]ccc23)CC1 [Capivasertib] + CCN(CCO)CCCOc1ccc2c(Nc3cc(CC(=O)Nc4cccc(F)c4)[nH]n3)ncnc2c1 [AZD2811] (first compound max 10 µM, 7x7, partner max 1 µM)" reported_result=0.348

Query compound follows.
Inquiry: Data request, read-out combination Emax, for CN(C)CCCOc1ccc(-c2ccc3ncc4c(c3c2)n(C2CCOCC2)c(=O)n4C)cn1 [AZD0156] + C=CCn1c(=O)c2cnc(Nc3ccc(N4CCN(C)CC4)cc3)nc2n1-c1cccc(C(C)(C)O)n1 [AZD1775] (first compound max 1 µM, partner max 1 µM)
Reply text: 0.195

====

# Test system: SK-N-DZ (Neuroblastoma)
# Experiment notes: combination Emax (second highest fraction inhibited in the dose matrix, 72 h); higher = more inhibition; extreme values may be limits of the assay
Label True when combination Emax is at or above 0.9; anything below gets False.

molecule="CC(=O)c1c(C)c2cnc(Nc3ccc(N4CCNCC4)cn3)nc2n(C2CCCC2)c1=O [Palbociclib] + CC1(C)CCC(CN2CCN(c3ccc(C(=O)NS(=O)(=O)c4ccc(NCC5CCOCC5)c([N+](=O)[O-])c4)c(Oc4cnc5[nH]ccc5c4)c3)CC2)=C(c2ccc(Cl)cc2)C1 [Venetoclax] (first compound max 10 µM, 7x7, partner max 1 µM)" category=False
molecule="CCN(CCO)CCCOc1ccc2c(Nc3cc(CC(=O)Nc4cccc(F)c4)[nH]n3)ncnc2c1 [AZD2811] + C=CCn1c(=O)c2cnc(Nc3ccc(N4CCN(C)CC4)cc3)nc2n1-c1cccc(C(C)(C)O)n1 [AZD1775] (first compound max 1 µM, partner max 1 µM)" category=True
molecule="Cc1cc2ncnn2cc1Nc1ncc2c(n1)n(C1CCOCC1)c(=O)n2C [AZD7648] + CCN(CCO)CCCOc1ccc2c(Nc3cc(CC(=O)Nc4cccc(F)c4)[nH]n3)ncnc2c1 [AZD2811] (first compound max 10 µM, 7x7, partner max 1 µM)" category=False
molecule="CC1(C)CCC(CN2CCN(c3ccc(C(=O)NS(=O)(=O)c4ccc(NCC5CCOCC5)c([N+](=O)[O-])c4)c(Oc4cnc5[nH]ccc5c4)c3)CC2)=C(c2ccc(Cl)cc2)C1 [Venetoclax] + CCN(CCO)CCCOc1ccc2c(Nc3cc(CC(=O)Nc4cccc(F)c4)[nH]n3)ncnc2c1 [AZD2811] (first compound max 1 µM, 7x7, partner max 1 µM)" category=False
molecule="Cc1nc(Nc2ncc(C(=O)Nc3c(C)cccc3Cl)s2)cc(N2CCN(CCO)CC2)n1 [Dasatinib] + CC(=O)Nc1cccc(-n2c(=O)n(C3CC3)c(=O)c3c(Nc4ccc(I)cc4F)n(C)c(=O)c(C)c32)c1 [Trametinib] (first compound max 2 µM, 7x7, partner max 1 µM)" category=False
molecule="Cc1cc2ncnn2cc1Nc1ncc2c(n1)n(C1CCOCC1)c(=O)n2C [AZD7648] + C[C@@H]1COCCN1C2=NC(=NC(=C2)C3(CC3)[S@](=N)(=O)C)C4=C5C=CNC5=NC=C4 [AZD6738] (first compound max 10 µM, 7x7, partner max 10 µM)" category=True
molecule="NC1(C(=O)N[C@@H](CCO)c2ccc(Cl)cc2)CCN(c2ncnc3[nH]ccc23)CC1 [Capivasertib] + CC(=O)c1c(C)c2cnc(Nc3ccc(N4CCNCC4)cn3)nc2n(C2CCCC2)c1=O [Palbociclib] (first compound max 10 µM, 7x7, partner max 10 µM)" category=False
molecule="Cc1c2c(nn1C)CSCc1cc(n(C)n1)CSc1cc(c3ccccc3c1)OCCCc1c(C(=O)O)n(C)c3c-2c(Cl)ccc13 [AZD5991] + Cc1cc2ncnn2cc1Nc1ncc2c(n1)n(C1CCOCC1)c(=O)n2C [AZD7648] (first compound max 1 µM, 7x7, partner max 10 µM)" category=False

Inquiry: State whether the measured combination Emax reaches 0.9, counting equality as reaching it, for Cc1cc2ncnn2cc1Nc1ncc2c(n1)n(C1CCOCC1)c(=O)n2C [AZD7648] + CN(C)CCCOc1ccc(-c2ccc3ncc4c(c3c2)n(C2CCOCC2)c(=O)n4C)cn1 [AZD0156] (first compound max 10 µM, 7x7, partner max 1 µM)
Reply text: False

Inquiry: Determine whether measured combination Emax meets or exceeds 0.9 for COc1cccc(OCCCN)c1-c1cc(Nc2cnc(C#N)cn2)n[nH]1 [Prexasertib] + CN(C)CCCOc1ccc(-c2ccc3ncc4c(c3c2)n(C2CCOCC2)c(=O)n4C)cn1 [AZD0156] (first compound max 1 µM, 7x7, partner max 1 µM)
Reply text: True

Inquiry: Quick check: does COc1cccc(OCCCN)c1-c1cc(Nc2cnc(C#N)cn2)n[nH]1 [Prexasertib] + C=CCn1c(=O)c2cnc(Nc3ccc(N4CCN(C)CC4)cc3)nc2n1-c1cccc(C(C)(C)O)n1 [AZD1775] (first compound max 1 µM, partner max 1 µM) have combination Emax greater than or equal to 0.9?
Reply text: True

Inquiry: Could you please find out whether Cc1c2c(nn1C)CSCc1cc(n(C)n1)CSc1cc(c3ccccc3c1)OCCCc1c(C(=O)O)n(C)c3c-2c(Cl)ccc13 [AZD5991] + CCN(CCO)CCCOc1ccc2c(Nc3cc(CC(=O)Nc4cccc(F)c4)[nH]n3)ncnc2c1 [AZD2811] (first compound max 1 µM, 7x7, partner max 1 µM) has combination Emax that meets 0.9 or exceeds it?
Reply text: False

Inquiry: Quick check, combination Emax >= 0.9? COc1cccc(OCCCN)c1-c1cc(Nc2cnc(C#N)cn2)n[nH]1 [Prexasertib] + Cc1cc2ncnn2cc1Nc1ncc2c(n1)n(C1CCOCC1)c(=O)n2C [AZD7648] (first compound max 1 µM, 7x7, partner max 10 µM)
Reply text: True
